The following compounds were reported with IC50 values on D-amino-acid oxidase (Homo sapiens) in different studies.

Lab note: need IC50 for Cc1cccnc1CSc1c[nH]c(=O)c(O)c1 on D-amino-acid oxidase (Homo sapiens), anyone have it?
1900 nM

Lab note: need IC50 for O=C(Oc1coc(CO)cc1=O)c1cc(CCc2ccc(Cl)cc2)c[nH]1 on D-amino-acid oxidase (Homo sapiens), anyone have it?
10000 to 100000 nM

Lab note: need IC50 for O=C(Oc1cc(CCc2cccc3ccccc23)n[nH]c1=O)c1cc(CCc2ccccc2)n[nH]1 on D-amino-acid oxidase (Homo sapiens), anyone have it?
100 to 500 nM

Lab note: need IC50 for COc1ccc(CSc2c[nH]c(=O)c(O)c2)cc1 on D-amino-acid oxidase (Homo sapiens), anyone have it?
130 nM

Lab note: need IC50 for O=c1[nH]cc(CCc2cccc(F)c2)cc1O on D-amino-acid oxidase (Homo sapiens), anyone have it?
130 nM

Lab note: need IC50 for O=c1[nH]cc(SCc2ccncc2)cc1O on D-amino-acid oxidase (Homo sapiens), anyone have it?
100 nM

Lab note: need IC50 for Cc1cccc(CCc2c[nH]c(=O)c(O)c2)c1 on D-amino-acid oxidase (Homo sapiens), anyone have it?
260 nM

Lab note: need IC50 for O=C(Oc1cc(CCc2cc(F)cc(F)c2)n[nH]c1=O)c1cc(CCc2ccc(Cl)cc2)c[nH]1 on D-amino-acid oxidase (Homo sapiens), anyone have it?
1000 to 10000 nM

Lab note: need IC50 for O=c1[nH]cc(S(=O)(=O)Cc2ccccc2)cc1O on D-amino-acid oxidase (Homo sapiens), anyone have it?
490 nM

Lab note: need IC50 for O=c1[nH]cc(SCc2cccc(C(F)(F)F)c2)cc1O on D-amino-acid oxidase (Homo sapiens), anyone have it?
190 nM

Lab note: need IC50 for O=c1[nH]cc(SCc2ccc(F)cc2)cc1O on D-amino-acid oxidase (Homo sapiens), anyone have it?
47 nM

Lab note: need IC50 for O=C(Oc1cc(Cc2cccc3ccccc23)n[nH]c1=O)c1cc(CCc2ccccc2)n[nH]1 on D-amino-acid oxidase (Homo sapiens), anyone have it?
100 to 1000 nM

Lab note: need IC50 for O=c1[nH]cc(SCc2ccccn2)cc1O on D-amino-acid oxidase (Homo sapiens), anyone have it?
460 nM

Lab note: need IC50 for Cc1ccc(CCc2c[nH]c(=O)c(O)c2)cc1 on D-amino-acid oxidase (Homo sapiens), anyone have it?
52 nM

Lab note: need IC50 for CCc1ccc(CSc2c[nH]c(=O)c(O)c2)cc1 on D-amino-acid oxidase (Homo sapiens), anyone have it?
79 nM

Lab note: need IC50 for Cc1ccccc1CSc1c[nH]c(=O)c(O)c1 on D-amino-acid oxidase (Homo sapiens), anyone have it?
390 nM

Lab note: need IC50 for Cc1nc(CSc2c[nH]c(=O)c(O)c2)co1 on D-amino-acid oxidase (Homo sapiens), anyone have it?
1400 nM

Lab note: need IC50 for O=C(Oc1cc(CCc2cccc3ccccc23)n[nH]c1=O)c1cc(CCc2ccc(Cl)cc2)n[nH]1 on D-amino-acid oxidase (Homo sapiens), anyone have it?
100 to 500 nM

Lab note: need IC50 for Cc1noc(C)c1CSc1c[nH]c(=O)c(O)c1 on D-amino-acid oxidase (Homo sapiens), anyone have it?
1900 nM

Lab note: need IC50 for COc1ccc(CSc2c[nH]c(=O)c(O)c2)cn1 on D-amino-acid oxidase (Homo sapiens), anyone have it?
83 nM

Lab note: need IC50 for O=C(Oc1cc2c(Cl)cccc2[nH]c1=O)c1cc(CCc2ccccc2)c[nH]1 on D-amino-acid oxidase (Homo sapiens), anyone have it?
100 to 1000 nM

Lab note: need IC50 for CC(Sc1c[nH]c(=O)c(O)c1)c1ccccc1 (stereo not shown) on D-amino-acid oxidase (Homo sapiens), anyone have it?
1300 nM

Lab note: need IC50 for C=Cc1coc2cc(C(=O)O)[nH]c12 on D-amino-acid oxidase (Homo sapiens), anyone have it?
< 100 nM

Lab note: need IC50 for O=c1[nH]cc(SCc2ccccc2Cl)cc1O on D-amino-acid oxidase (Homo sapiens), anyone have it?
210 nM

Lab note: need IC50 for O=C(Oc1cc(Cc2cccc3ccccc23)n[nH]c1=O)c1cc(CCc2cccc(Cl)c2)n[nH]1 on D-amino-acid oxidase (Homo sapiens), anyone have it?
100 to 500 nM
